For each entry below, report its IC50 value.
Test system: Ub-PCNA levels in the nucleus of ES2 cells (USP1 activity)
assayNotes: ES2 Ub-PCNA immunofluorescence (IF) assay
Format: cell-based
particulars: Homo sapiens, ES-2; ES2 cells, 3 hours, Ub-PCNA immunofluorescence; read-out: USP1 IC50 (Ub-PCNA)

Solved cases (3 shown):
{"columns": ["molecule", "reportedEndpoint", "assayValue"],
 "data": [
  ["CCn1cc(C(F)(F)F)nc1-c1ccc(NC2CCCCn3nc(-c4c(Cl)cnn4C(C)C)cc32)cc1 (centres unmarked)", "IC50", "< 100 nM"],
  ["COc1ncnc(C2CC2)c1-c1nc2n(Cc3ccc(-c4nc(C(F)(F)F)cn4C(C)C)c(F)c3OC)c(=O)ccn2n1", "IC50", "< 100 nM"],
  ["CCn1cc(C(F)(F)F)nc1-c1ccc(C(C)N2C(=O)CCn3nc(-c4c(OC)ncnc4C4CC4)cc32)cc1 (centres unmarked)", "IC50", "100 to 500 nM"]
]}

Look up IC50 for the entries below, preserving their order.
1. Cc1cnn(C(C)C)c1-c1cc2n(n1)CCC(=O)N2Cc1ccc(-c2nc(C(F)(F)F)c[nH]2)cc1
2. COc1ncnc(C2CC2)c1-c1nc2n(n1)CCC(=O)N2Cc1ccc(-c2nc(C(F)(F)F)cn2C(C)C)cc1
3. COc1ccc(C(F)(F)F)nc1-c1ccc(CN2C(=O)CCn3nc(-c4c(Cl)cnn4C(C)C)cc32)cc1Cl

["> 500 nM", "< 100 nM", "< 100 nM"]

###

targetDesc: USP1/UAF1 enzyme (Homo sapiens)
Sequence (O94782 whole entry): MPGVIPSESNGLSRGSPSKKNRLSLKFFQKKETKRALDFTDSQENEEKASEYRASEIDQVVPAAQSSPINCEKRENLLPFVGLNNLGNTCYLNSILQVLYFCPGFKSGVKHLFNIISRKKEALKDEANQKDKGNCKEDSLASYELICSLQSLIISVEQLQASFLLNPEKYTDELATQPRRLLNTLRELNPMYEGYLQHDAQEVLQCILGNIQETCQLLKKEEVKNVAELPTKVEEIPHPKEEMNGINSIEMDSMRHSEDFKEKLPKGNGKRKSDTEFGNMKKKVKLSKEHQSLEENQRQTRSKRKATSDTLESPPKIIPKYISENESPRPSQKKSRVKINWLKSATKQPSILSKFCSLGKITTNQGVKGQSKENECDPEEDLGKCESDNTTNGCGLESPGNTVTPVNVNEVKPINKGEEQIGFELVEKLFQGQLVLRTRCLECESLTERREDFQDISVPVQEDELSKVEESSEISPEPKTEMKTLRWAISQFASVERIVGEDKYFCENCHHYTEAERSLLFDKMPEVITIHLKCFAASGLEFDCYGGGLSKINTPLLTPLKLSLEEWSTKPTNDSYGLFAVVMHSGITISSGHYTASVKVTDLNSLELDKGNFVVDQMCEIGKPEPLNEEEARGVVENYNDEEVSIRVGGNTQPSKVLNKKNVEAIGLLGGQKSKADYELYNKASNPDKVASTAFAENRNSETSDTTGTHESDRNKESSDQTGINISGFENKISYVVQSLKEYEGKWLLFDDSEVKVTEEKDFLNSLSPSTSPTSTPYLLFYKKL
Sequence (Q8TAF3 whole entry partner): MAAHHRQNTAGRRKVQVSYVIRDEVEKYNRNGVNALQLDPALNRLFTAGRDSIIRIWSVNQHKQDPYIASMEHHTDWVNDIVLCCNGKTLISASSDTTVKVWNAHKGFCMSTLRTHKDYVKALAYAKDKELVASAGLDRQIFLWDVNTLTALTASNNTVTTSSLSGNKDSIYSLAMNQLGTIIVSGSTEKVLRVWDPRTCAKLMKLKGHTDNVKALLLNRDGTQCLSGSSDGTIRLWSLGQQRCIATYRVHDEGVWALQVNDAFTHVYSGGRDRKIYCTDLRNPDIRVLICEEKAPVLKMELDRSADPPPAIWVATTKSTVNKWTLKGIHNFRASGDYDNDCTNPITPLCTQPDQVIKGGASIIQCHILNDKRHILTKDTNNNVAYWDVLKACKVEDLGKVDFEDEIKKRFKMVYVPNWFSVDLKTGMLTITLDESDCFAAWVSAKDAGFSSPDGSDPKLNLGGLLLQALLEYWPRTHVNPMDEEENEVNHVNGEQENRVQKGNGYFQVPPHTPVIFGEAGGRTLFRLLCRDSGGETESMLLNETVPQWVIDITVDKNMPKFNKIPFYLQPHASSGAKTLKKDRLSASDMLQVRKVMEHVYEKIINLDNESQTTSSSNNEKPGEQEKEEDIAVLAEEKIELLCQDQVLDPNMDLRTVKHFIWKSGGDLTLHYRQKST
assayNotes: USP1/UAF1 deubiquitination assay (ubiquitin-rhodamine 110 substrate)
particulars: read-out: USP1 IC50 (Ub-Rho)
pIC50: −log10 of the molar value.
reportedEndpoint: pIC50

Solved cases (5 shown):
{"columns": ["compound", "targetDesc", "reportedEndpoint", "assayValue"],
 "data": [
  ["CCn1cc(C(F)(F)F)nc1-c1ccc(CN2CC(N)Cn3nc(-c4c(Cl)cnn4C(C)C)cc32)cc1F (stereo not drawn) [Example 353]", "USP1/UAF1 enzyme (Homo sapiens)", "pIC50", "> 7.00"],
  ["COc1cc(CN2C(=O)CCn3nc(-c4c(OC)ncnc4C4CC4)cc32)cc(F)c1-c1nc(C(F)(F)F)cn1C(C)C [Example 144]", "USP1/UAF1 enzyme (Homo sapiens)", "pIC50", "> 7.00"],
  ["CCn1cc(C(F)(F)F)nc1-c1ccc(N(CCO)C2CCCn3nc(-c4c(Cl)cnn4C(C)C)cc32)cc1F (stereo not drawn) [Example 331]", "USP1/UAF1 enzyme (Homo sapiens)", "pIC50", "> 7.00"],
  ["CC(C)n1ncc(Cl)c1-c1cc2n(n1)CCC(=O)N2Cc1ccc(-c2nc(C(F)(F)F)nn2C)cc1 [Example 102]", "USP1/UAF1 enzyme (Homo sapiens)", "pIC50", "6.30 to 7.00"],
  ["CC(C)n1ncc(Cl)c1-c1cc2n(n1)CCCN2Cc1ccc(-c2nc(C(F)(F)F)cn2C)c(F)c1 [Example 61]", "USP1/UAF1 enzyme (Homo sapiens)", "pIC50", "> 7.00"]
]}

Please examine the following record next.
Find the recorded pIC50 belonging to CCn1cc(C(F)(F)F)nc1-c1ccc(CN2C(=O)CCn3nc(-c4cccc5c4N(C)CC5)cc32)cc1 [Example 23] and report it. 6.30 to 7.00

Origin of measurements: patent US20230219965A1
